Data origin, for the record: PubChem BioAssay AID1851

target: Cytochrome P450 1A2 (Homo sapiens) (UniProt P05177); assay: Cytochrome panel assay with activity outcomes; conditions: recombinant CYP, pro-luciferin dealkylation, luminescence, p450-cyp1a2; series mostly up to 57.1 µM; for activity, negative = inhibition: % is set by controls: 0 for no effect and ±100 for the full control effect
Sequence (P05177 whole entry, looked up): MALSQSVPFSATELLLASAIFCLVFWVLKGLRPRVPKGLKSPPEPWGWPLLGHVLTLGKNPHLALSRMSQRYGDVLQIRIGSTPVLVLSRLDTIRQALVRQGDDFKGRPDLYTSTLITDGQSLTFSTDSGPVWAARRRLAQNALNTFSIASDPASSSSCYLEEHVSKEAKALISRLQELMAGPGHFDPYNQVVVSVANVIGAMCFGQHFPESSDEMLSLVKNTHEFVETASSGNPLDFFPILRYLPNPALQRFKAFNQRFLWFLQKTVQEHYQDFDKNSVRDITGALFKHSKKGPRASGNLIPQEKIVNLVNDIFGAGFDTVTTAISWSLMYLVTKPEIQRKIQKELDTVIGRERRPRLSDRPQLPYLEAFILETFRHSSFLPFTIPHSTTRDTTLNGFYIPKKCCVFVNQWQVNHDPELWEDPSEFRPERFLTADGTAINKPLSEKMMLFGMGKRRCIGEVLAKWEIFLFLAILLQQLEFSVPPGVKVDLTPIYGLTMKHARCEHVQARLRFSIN
Out of some 16,000 compounds screened, about 5,700 (36%) were called active. About 24% were inconclusive and are not listed. This is one part of the list.

smilesCode: O=C1C=C(Nc2nc(C(=O)O)cc(=O)[nH]2)c2ccccc2C1=O
activity, negative = inhibition: -15.8% [at 2.29 µM] (inactive)
--
smilesCode: CC(=O)O[C@H]1C2=CO[C@H](C)[C@H]3[C@H]4C5=C([C@H](O)[C@H]6O[C@@H]6C5=O)[C@H](O[C@H]4C)[C@@]23C(=O)[C@H]2O[C@@H]21
activity, negative = inhibition: -0.486% [at 11.4 µM] (inactive)
--
smilesCode: O=C1COC(c2ccccc2O)=NN1CCCN1CCCC1
activity, negative = inhibition: -13.6% [at 11.4 µM] (inactive)
--
smilesCode: CO[C@H]1COC(=O)C/C=C\[C@@H](C)COC(=O)[C@@H](C)NC(=O)C/C=C\[C@@H]1C
activity, negative = inhibition: -10.1% [at 11.4 µM] (inactive)
--
smilesCode: O=C(O)C[C@H](NC(=O)CP(=O)(O)O)C(=O)O.[NH-][C@@H]1CCCC[C@@H]1[NH-].[Pt]
activity, negative = inhibition: -15.5% [at 11.4 µM] (inactive)
--
smilesCode: COC(=O)C/C=C\[C@@H](C)[C@@H](/C=N\OC[C@@H]1O[C@H](c2ccccc2)C=C[C@@H]1Oc1ccc(OC)cc1)OC
activity, negative = inhibition: 10.1% [at 11.4 µM] (inactive)
--
smilesCode: C[C@@H]1CCCN(CP(=O)(c2ccccc2)c2ccccc2)C1
activity, negative = inhibition: -3.49% [at 11.4 µM] (inactive)
--
smilesCode: N[C@@H](Cc1ccccc1)C(=O)O
activity, negative = inhibition: -14% [at 11.4 µM] (inactive)
--
smilesCode: O=C(O)[C@H](Cc1c[nH]c2ccccc12)N1C(=O)c2ccccc2C1=O
activity, negative = inhibition: -8.32% [at 2.29 µM] (inactive)
--
smilesCode: CO[C@@H]1COC(=O)[C@H]2CCCN2C(=O)[C@@H](C)COC(=O)CCC[C@H]1C
activity, negative = inhibition: 6.36% [at 11.4 µM] (inactive)
--
smilesCode: COc1cccc([C@@H]2Oc3ccc(OC)cc3/C(=N/O[C@@H](C)c3cc(-c4c(C)cc(C)cc4C)no3)[C@@H]2O)c1
activity, negative = inhibition: -10.9% [at 11.4 µM] (inactive)
--
smilesCode: O=C(O)Cn1ccnc1[N+](=O)[O-]
activity, negative = inhibition: -3.98% [at 11.4 µM] (inactive)
--
smilesCode: CC(=O)OC[C@@H]1O[C@H](CCON=C(C)C)C=C[C@@H]1OC(C)=O
activity, negative = inhibition: 4.98% [at 11.4 µM] (inactive)
--
smilesCode: N=C(N)CCNC(=O)[C@@H]1CCC(N)=N1
activity, negative = inhibition: -3.4% [at 2.29 µM] (inactive)
--
smilesCode: CCN1C(=O)[C@H]2[C@H]3[C@H](O)[C@H](O)C/C(=N/OCC(C)C)[C@@H]3CC[C@@H]2C1=O
activity, negative = inhibition: -10.8% [at 11.4 µM] (inactive)
--
smilesCode: c1cncc(CNc2ncn[nH]2)c1
activity, negative = inhibition: -7.88% [at 11.4 µM] (inactive)
--
smilesCode: Cc1cc2c(c(=O)o1)[C@@H](O)[C@H]1O[C@@H]1C2=O
activity, negative = inhibition: -3.99% [at 11.4 µM] (inactive)
--
smilesCode: CO[C@@H]1COC(=O)[C@@H](C)NC(=O)C/C=C\[C@@H](C)[C@H](NS(=O)(=O)c2ccc(C)cc2)COC(=O)[C@H](C)NC(=O)C/C=C\[C@H]1C
activity, negative = inhibition: 1.37% [at 11.4 µM] (inactive)
--
smilesCode: OCCNc1ncnc2c1ncn2[C@@H]1O[C@@H](CO)[C@H](O)[C@@H]1O
activity, negative = inhibition: -20.3% [at 11.4 µM] (inactive)
--
smilesCode: COc1ccc(-c2cnnc(CCCn3ccnc3-c3ccccc3)n2)cc1
activity, negative = inhibition: -12.1% [at 11.4 µM] (inactive)
--
smilesCode: Cn1c(=O)c2[nH]c(COCc3nc4c([nH]3)c(=O)n(C)c(=O)n4C)nc2n(C)c1=O
activity, negative = inhibition: 4.47% [at 2.29 µM] (inactive)
--
smilesCode: C/C(CC/C(C)=N/O)=N/O
activity, negative = inhibition: -12.6% [at 2.29 µM] (inactive)
--
smilesCode: O=C(O)[C@@H](c1ccccc1)[C@@H](C(=O)O)c1ccccc1
activity, negative = inhibition: -12% [at 2.29 µM] (inactive)
--
smilesCode: CN1CCN(c2nc3c(c(=O)n(C)c(=O)n3C)n2C)CC1
activity, negative = inhibition: -16.8% [at 2.29 µM] (inactive)
--
smilesCode: C#CCCCO/N=C1/C[C@@H](O)[C@@H](O)[C@@H]2[C@@H]3C(=O)N(CC)C(=O)[C@H]3CC[C@H]12
activity, negative = inhibition: -27.8% [at 11.4 µM] (inactive)
--
smilesCode: Cc1cccc(C)c1NC(=O)Nc1ccc(S(N)(=O)=O)cc1
activity, negative = inhibition: -10.8% [at 2.29 µM] (inactive)
--
smilesCode: O=C(O)c1ccc(OCc2ccccc2)c(Cl)c1
activity, negative = inhibition: -3.18% [at 2.29 µM] (inactive)
--
smilesCode: CC(C)(C)N1C(=O)[C@H]2[C@H]3[C@H](O)[C@H](O)C/C(=N/NC(=O)OCc4ccccc4)[C@@H]3CC[C@@H]2C1=O
activity, negative = inhibition: -5.49% [at 11.4 µM] (inactive)
--
smilesCode: Cc1ccc(C(C)C)n1C(=O)OC(C)(C)C
activity, negative = inhibition: 6.74% [at 11.4 µM] (inactive)
--
smilesCode: Nc1ncnc2c1nc(-c1ccccc1)n2[C@H]1O[C@@H](CO)[C@@H](O)[C@H]1O
activity, negative = inhibition: -16.8% [at 2.29 µM] (inactive)

* * *

molecular target: Cytochrome P450 1A2 (Homo sapiens); assay: Cytochrome panel assay with activity outcomes; conditions: recombinant CYP, pro-luciferin dealkylation, luminescence, p450-cyp1a2; series mostly up to 57.1 µM
The campaign covered roughly 16,000 compounds. About 5,700 (36%) were called active. Not shown: some 24% with an inconclusive outcome. Calls come from the whole dose curve; as a rule, active = well fitted curve in the direction sought with a large enough effect; inconclusive = small, poorly fitted or top-dose-only effect, or effect the other way; inactive = no such curve, though single readings can be large or run the other way. Some of the results follow.
Labels: active, inactive

molecule: O=c1c(-c2ccc(F)c(F)c2)nc2cncnc2n1C1CC1
assayedSystem: Cytochrome P450 1A2 (Homo sapiens)
classification: active
//
molecule: N#C/C(=C(/O)CN1CCCCC1)c1nc(-c2ccc(Cl)cc2)cs1
assayedSystem: Cytochrome P450 1A2 (Homo sapiens)
classification: active
//
molecule: COc1ccc(-n2c(=O)c(C)nc3cncnc32)cc1
assayedSystem: Cytochrome P450 1A2 (Homo sapiens)
classification: inactive
//
molecule: O=C(C/C=N/OCc1ccc(Cl)cc1Cl)c1ccc(Cl)cc1
assayedSystem: Cytochrome P450 1A2 (Homo sapiens)
classification: active
//
molecule: C/C(=C(/CCO)SSC[C@@H]1CCCO1)N(C=O)Cc1cnc(C)nc1N
assayedSystem: Cytochrome P450 1A2 (Homo sapiens)
classification: inactive
//
molecule: O=C(Nc1ccccc1)c1ccccc1CC[N+](=O)[O-]
assayedSystem: Cytochrome P450 1A2 (Homo sapiens)
classification: active
//
molecule: Cc1ccc2nc(N/N=C\c3cccc(C)n3)cc(C)c2c1
assayedSystem: Cytochrome P450 1A2 (Homo sapiens)
classification: active
//
molecule: C=CCSc1nc(C)cc(/C=C\c2ccccc2)c1C#N
assayedSystem: Cytochrome P450 1A2 (Homo sapiens)
classification: active
//
molecule: CC(/C=C/c1ccco1)=N/NC(=O)c1ccccc1Cl
assayedSystem: Cytochrome P450 1A2 (Homo sapiens)
classification: active
//
molecule: O=c1c(-c2ccc(F)cc2)nc2cncnc2n1C1CC1
assayedSystem: Cytochrome P450 1A2 (Homo sapiens)
classification: active
//
molecule: Cc1cccc(NC(=O)c2cc(N3C(=O)CCC3=O)ccc2Cl)n1
assayedSystem: Cytochrome P450 1A2 (Homo sapiens)
classification: inactive
//
molecule: Cc1nc2cncnc2n(C2CC2)c1=O
assayedSystem: Cytochrome P450 1A2 (Homo sapiens)
classification: active
//
molecule: COC(=O)C1(Cc2ccccc2)C2c3cc(C(=O)N4CCCC4)n(Cc4ccc(OC(F)(F)F)cc4)c3CC2CN1C(=O)c1ccccc1 (centres undefined)
assayedSystem: Cytochrome P450 1A2 (Homo sapiens)
classification: inactive
//
molecule: Cc1nc2cnc(Oc3cccc(Cl)c3)nc2n(C2CC2)c1=O
assayedSystem: Cytochrome P450 1A2 (Homo sapiens)
classification: active
//
molecule: CCc1c2c(nc3cccc(SC)c13)COC2
assayedSystem: Cytochrome P450 1A2 (Homo sapiens)
classification: active
//
molecule: O=C(Nc1ccc([N+](=O)[O-])cc1Cl)c1cc(Cl)ccc1O
assayedSystem: Cytochrome P450 1A2 (Homo sapiens)
classification: active
//
molecule: O=C(C/C=N/OCc1ccc(F)cc1Cl)c1cnc(-c2ccccc2)s1
assayedSystem: Cytochrome P450 1A2 (Homo sapiens)
classification: active
//
molecule: O=C1c2ccccc2NC(c2ccc(F)cc2)N1Cc1ccco1 (centres undefined)
assayedSystem: Cytochrome P450 1A2 (Homo sapiens)
classification: active
//
molecule: O=S(=O)(c1ccccc1)N1CCC[C@@]2(CCN(C(c3ccccc3)c3ccccc3)C2)C1
assayedSystem: Cytochrome P450 1A2 (Homo sapiens)
classification: inactive
//
molecule: CC1=NN(c2ccccc2)C(=O)/C1=C\c1c(C)[nH]n(-c2ccccc2)c1=O
assayedSystem: Cytochrome P450 1A2 (Homo sapiens)
classification: inactive
//
molecule: COc1ccc2c(c1)c(=O)oc1c(C)c(OCC(=O)N3CCc4ccccc4C3)ccc12
assayedSystem: Cytochrome P450 1A2 (Homo sapiens)
classification: active
//
molecule: Cc1ccc(C2C(C(=O)c3sc(C)nc3C)=C(O)C(=O)N2CCN2CCOCC2)o1 (centres undefined)
assayedSystem: Cytochrome P450 1A2 (Homo sapiens)
classification: inactive
//
molecule: O=c1[nH][nH]cc1C=Nc1ccccc1O
assayedSystem: Cytochrome P450 1A2 (Homo sapiens)
classification: active
//
molecule: COc1cc(C2C(=O)N(C3CCCC3)CC(=O)N2Cc2ccco2)ccc1OC(C)C (centres undefined)
assayedSystem: Cytochrome P450 1A2 (Homo sapiens)
classification: inactive
//
molecule: CC(=O)Nc1ccc(NC(=O)c2ccccc2CC[N+](=O)[O-])cc1
assayedSystem: Cytochrome P450 1A2 (Homo sapiens)
classification: inactive
//
molecule: COc1cccc(CC(C(=O)Nc2cc(C)ccc2C)c2nn[nH]n2)c1OC (centres undefined)
assayedSystem: Cytochrome P450 1A2 (Homo sapiens)
classification: active
//
molecule: CC/C(=N/Nc1ccccc1)c1cnnc(SC)n1
assayedSystem: Cytochrome P450 1A2 (Homo sapiens)
classification: active
//
molecule: Cc1ccc(C(=O)/C=C/c2c[nH]c3ccccc23)cc1
assayedSystem: Cytochrome P450 1A2 (Homo sapiens)
classification: active
//
molecule: Cc1cccc(CNc2ccnc(-c3cccnc3)n2)c1
assayedSystem: Cytochrome P450 1A2 (Homo sapiens)
classification: active
//
molecule: N/C(=N\OC(=O)c1cc(-c2ccccc2)nc2ccccc12)c1ccc(Cl)cc1
assayedSystem: Cytochrome P450 1A2 (Homo sapiens)
classification: active
//
molecule: O=c1c(C=Nc2ccc(Oc3ccccc3)cc2)c[nH]n1-c1cccc(Cl)n1
assayedSystem: Cytochrome P450 1A2 (Homo sapiens)
classification: inactive
//
molecule: Clc1ccc(Cn2c(-c3cccnc3Cl)nc3ccccc32)c(Cl)c1
assayedSystem: Cytochrome P450 1A2 (Homo sapiens)
classification: active
//
molecule: FC(F)(F)c1ccc(N2CCOCC2)c(Nc2nc3ccccc3n3cnnc23)c1
assayedSystem: Cytochrome P450 1A2 (Homo sapiens)
classification: active
//
molecule: CN1CCC2(CC1)CCN(C(=O)c1cc(C(F)(F)F)cc(C(F)(F)F)c1)CC2
assayedSystem: Cytochrome P450 1A2 (Homo sapiens)
classification: inactive
